- Substrate: CCOC(=O)C(=O)CCc1ccccc1
- METHOD: purified protein
- Format: biochemical, Thermotoga maritima
- PROTOCOL CONDITIONS: apparent, 0.25 mM NADPH, 50 mM potassium phosphate pH 6.5, 35 °C, 30 mM DMSO
RECORDED ENDPOINT: kcat
Provide the measurement as a number trailed by its unit.

The protein listed as Tm1743 (Thermotoga maritima MSB8; W21S/W86N) (protein) MLYKELGRTGEEIPALGLGTSGIGGFETPDYSRDEEMVELLKTAIKMGYTHIDTAEYYGGGHTEELIGKAIKDFRREDLFIVSKVNPTHLRRDDLLRSLENTLKRLDTDYVDLYLIHWPNPEIPLEETLSAMAEGVRQGLIRYIGVSNFDRRLLEEAISKSQEPIVCDQVKYNIEDRDPERDGLLEFCQKNGVTLVAYSPLRRTLLSEKTKRTLEEIAKNHGATIYQIMLAWLLAKPNVVAIPKAGRVEHLRENLKATEIKLSEEEMKLLDSLG has a reported kcat of 0.84 s⁻¹
